// UniProtKB Q9NWZ3 IC50 records

C[C@H]1CCCCN1C(=O)CCCCCc1cn(-c2ccccc2)c(NC(=O)c2cccc(-c3cn[nH]c3)c2)n1 = < 50 nM
N[C@@H]1CCCN(C(=O)CCc2cn(-c3ccccc3)c(NC(=O)c3cccc(-c4cn[nH]c4)c3)n2)C1 = < 50 nM
COC[C@@H]1CCCN1C(=O)CCc1cn(-c2ccccc2)c(NC(=O)c2cccc(-c3cn[nH]c3)c2)n1 = 50 to 100 nM
C[C@@H]1CCCCN1C(=O)CCCCc1cn(-c2ccccc2)c(NC(=O)c2cccc(-c3cn[nH]c3)c2)n1 = < 50 nM
CNC(=O)Cc1cn(-c2ccccc2)c(NC(=O)c2ccc(-c3cn[nH]c3)cc2)n1 = > 100 nM

Tell me reported IC50 for CC(=O)N1CCN(C(=O)CCCc2cn(-c3ccccc3)c(NC(=O)c3cccc(-c4cnn(C)c4)c3)n2)CC1 , tested with UniProtKB Q9NWZ3.
< 50 nM

Tell me reported IC50 for O=C(CCCCc1cn(-c2ccccc2)c(NC(=O)c2cccc(-c3cn[nH]c3)c2)n1)NC1CC1 , tested with UniProtKB Q9NWZ3.
< 50 nM

Tell me reported IC50 for O=C(CCCCc1cn(-c2ccccc2)c(NC(=O)c2cccc(-c3cn[nH]c3)c2)n1)Nc1ccccc1 , tested with UniProtKB Q9NWZ3.
< 50 nM

Tell me reported IC50 for Cn1cc(-c2cccc(C(=O)Nc3nc(CCCC(=O)N4CCC(O)CC4)cn3-c3ccccc3)c2)cn1 , tested with UniProtKB Q9NWZ3.
< 50 nM

Tell me reported IC50 for O=C(O)CCCc1cn(-c2ccccc2)c(NC(=O)c2cccc(-c3cn[nH]c3)c2)n1 , tested with UniProtKB Q9NWZ3.
< 50 nM

* * *

pIC50: −log10 of the molar value.
// IRAK4 (Homo sapiens (Human), UniProt Q9NWZ3) pIC50 records

Consider the following illustrative entries.
CN1CCN(C(=O)CCCCCc2cn(-c3ccccc3)c(NC(=O)c3cccc(-c4ccc5[nH]ncc5c4)c3)n2)CC1 = > 7.30
O=C(CCc1cn(-c2ccccc2)c(NC(=O)c2cccc(-c3c[nH]nc3[N+](=O)[O-])c2)n1)Nc1ccccc1 = < 7.00

Tell me reported pIC50 for COC[C@H]1CCCN1C(=O)CCCc1cn(-c2ccccc2)c(NC(=O)c2cccc(-c3cn[nH]c3)c2)n1 , tested with IRAK4 (Homo sapiens (Human), UniProt Q9NWZ3).
Sequence (Q9NWZ3 whole entry): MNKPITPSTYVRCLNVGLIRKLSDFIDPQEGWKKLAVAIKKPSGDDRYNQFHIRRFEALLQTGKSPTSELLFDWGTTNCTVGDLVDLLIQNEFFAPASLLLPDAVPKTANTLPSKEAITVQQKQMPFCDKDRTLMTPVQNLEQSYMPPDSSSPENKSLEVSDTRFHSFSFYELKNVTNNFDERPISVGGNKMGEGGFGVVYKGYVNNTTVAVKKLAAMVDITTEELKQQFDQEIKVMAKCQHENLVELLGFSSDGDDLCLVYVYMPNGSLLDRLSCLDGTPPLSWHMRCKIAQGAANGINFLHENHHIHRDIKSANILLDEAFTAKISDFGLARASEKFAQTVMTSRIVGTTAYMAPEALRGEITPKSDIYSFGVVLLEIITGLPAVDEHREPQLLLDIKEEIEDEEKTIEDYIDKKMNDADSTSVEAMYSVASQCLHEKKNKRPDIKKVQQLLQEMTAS
> 7.30

Tell me reported pIC50 for Cn1ncc(-c2cccc(C(=O)Nc3nc(CCCC(=O)NC4CC4)cn3-c3ccccc3)c2)c1F , tested with IRAK4 (Homo sapiens (Human), UniProt Q9NWZ3).
7.00 to 7.30

Tell me reported pIC50 for Cn1cc(-c2cccc(C(=O)Nc3nc(CCCC(=O)Nc4ccc5c(cnn5C)c4)cn3-c3ccccc3)c2)cn1 , tested with IRAK4 (Homo sapiens (Human), UniProt Q9NWZ3).
> 7.30

* * *

// IRAK4 (Homo sapiens (Human), UniProt Q9NWZ3) IC50 records

Consider the following illustrative entries.
Cn1cc(-c2cccc(C(=O)Nc3nc(CCCCCCN4CCCC4)cn3-c3ccccc3)c2)cn1 [Example 222] = < 50 nM
CC1(C)CCN(C(=O)CCc2cn(-c3ccccc3)c(NC(=O)c3cccc(-c4cn[nH]c4)c3)n2)CC1 [Example 35] = < 50 nM
O=C(Nc1nc(CCCCCCNC(=O)C2CC2)cn1-c1ccccc1)c1cccc(-c2ccc3[nH]ncc3c2)c1 [Example 262] = < 50 nM
CN(C)C1CCN(C(=O)CCCc2cn(-c3ccccc3)c(NC(=O)c3cccc(-c4ccc5scnc5c4)c3)n2)CC1 [Example 282] = > 100 nM
COC[C@H]1CCCN1NC(=O)Cc1cn(-c2ccccc2)c(NC(=O)c2cccc(-c3cn[nH]c3)c2)n1 [Example 45] = 50 to 100 nM
O=C(Nc1nc(CCCCN2CCCCC2)cn1-c1ccccc1)c1cccc(-c2ccc3[nH]ncc3c2)c1 [Example 256] = < 50 nM

Continue with the molecule presented below.
Tell me reported IC50 for C[C@@H]1CCCN1C(=O)CCc1cn(-c2ccccc2)c(NC(=O)c2cccc(-c3cn[nH]c3)c2)n1 [Example 23] , tested with IRAK4 (Homo sapiens (Human), UniProt Q9NWZ3).
< 50 nM

* * *

assayed_system: IRAK4 (Homo sapiens (Human))
pIC50: −log10 of the molar value.
Listed next: entries and their corresponding pIC50.

Cn1cc(-c2cccc(C(=O)Nc3nc(CCCC(=O)N4CCNCC4)cn3-c3ccccc3)c2)cn1 = > 7.30
COC[C@@H]1CCCN1NC(=O)CCCCCc1cn(-c2ccccc2)c(NC(=O)c2cccc(-c3cn[nH]c3)c2)n1 = > 7.30
O=C(Nc1nc(CCC(=O)N2CC[C@H](C(=O)O)C2)cn1-c1ccccc1)c1cccc(-c2cn[nH]c2)c1 = < 7.00
CNC(=O)CCCc1cn(-c2ccccc2)c(NC(=O)c2cccc(-c3ccc4[nH]ncc4c3)c2)n1 = > 7.30
COC[C@@H]1CCCN1NC(=O)CCc1cn(-c2ccccc2)c(NC(=O)c2cccc(-c3cn[nH]c3)c2)n1 = 7.00 to 7.30

Entry under review: O=C(Nc1nc(CCCCCCN2CCCCC2)cn1-c1ccccc1)c1cccc(-c2ccccn2)c1 . Reported pIC50?
< 7.00

Entry under review: CN(C)C1CCN(C(=O)CCCCCc2cn(-c3ccccc3)c(NC(=O)c3cccc(-c4ccc5scnc5c4)c3)n2)CC1 . Reported pIC50?
< 7.00

Entry under review: Nc1ccc(-c2cccc(C(=O)Nc3nc(CCCCCC(=O)N4CCCCC4)cn3-c3ccccc3)c2)cn1 . Reported pIC50?
> 7.30

Entry under review: Cn1cc(-c2cccc(C(=O)Nc3nc(CCCC(=O)N4CCC(N5CCCC5)CC4)cn3-c3ccccc3)c2)cn1 . Reported pIC50?
> 7.30

Entry under review: C[C@@H]1CCCCN1C(=O)CCc1cn(-c2ccccc2)c(NC(=O)c2cccc(-c3cn[nH]c3)c2)n1 . Reported pIC50?
> 7.30
